# System: MAPK9
# Design: species or system human, MV4-11 + K-562 + COLO205 + SK-N-BE2 + OVCAR-8
# stated.conditions: read-out: apparent Kd; compound concentrations:100 nM and 1000 nM (sheet 'Samples'); n = 1
property.name: potency estimated from few doses (nM)
Provide only the numeric value, understood in nM.

Some solved cases for reference:
>  <molecule>
Fc1ccc(-c2ncn(C3CCNCC3)c2-c2ccnc(Oc3ccccc3)n2)cc1 [SB-239272]

>  <value.unit>
nM

>  <potency estimated from few doses>
1110

$$$$
>  <molecule>
COc1cc[nH]c1/C=C1\C(=O)Nc2ccc(F)c(C#C[C@@H](O)[C@@H](N)[C@@H](C)O)c21 [RO0283120-000]

>  <value.unit>
nM

>  <potency estimated from few doses>
321

$$$$
>  <molecule>
Fc1ccc(-c2c(-c3ccncc3)[nH]c3nccnc23)cc1 [RO1155697-000]

>  <value.unit>
nM

>  <potency estimated from few doses>
368

$$$$

[Q] # input molecule: CS(=O)(=O)CCCn1c(=O)c(Oc2ccc(F)cc2F)cc2cnc(NC3CCOCC3)nc21 [RO5033700-000] ; wanted: its potency estimated from few doses
[A] 110

[Q] Try the molecule Cl.Cn1c(=O)c(Oc2ccc(F)cc2F)cc2cnc(NC3CCS(=O)(=O)CC3)nc21 [RO3308271-001]
[A] 212

[Q] Try this molecule too: Nc1nc(N)c2nc(-c3ccccc3)[nH]c2n1 [SKF-12778]
[A] 2000

[Q] Can you check Cc1cc(NC(=O)c2cccc(NC(=O)/C=C/CN(C)C)c2)ccc1Nc1nccc(-c2cccnc2)n1 [JNK-IN-7] next?
[A] 6.45

====

# Test system: CDK16
# Design: species or system human, MV4-11 + K-562 + COLO205 + SK-N-BE2 + OVCAR-8
# stated.conditions: read-out: apparent Kd; compound concentrations:100 nM and 1000 nM (sheet 'Samples'); n = 1
property.name: potency estimated from few doses
Don't forget the unit after the number, please.

Below, each entry is followed by its recorded potency estimated from few doses result.
>  <molecule>
O=C(Nc1n[nH]c2nc(-c3cccc(O)c3)ccc12)C1CC1

>  <property.name>
potency estimated from few doses

>  <meas.value>
2150 nM

$$$$
>  <molecule>
CS(=O)(=O)N1CCC(Nc2ncc(C(=O)c3c(F)cccc3F)c(N)n2)CC1

>  <property.name>
potency estimated from few doses

>  <meas.value>
1350 nM

$$$$

[Q] Fill in the blank: the reported potency estimated from few doses of COc1ccccc1C(=O)c1cnc(NC2CCN(S(C)(=O)=O)CC2)nc1N is ____.
[A] 721 nM

====

# System: PRKD2
# Design: species or system human, MV4-11 + K-562 + COLO205 + SK-N-BE2 + OVCAR-8
# stated.conditions: read-out: apparent Kd; compound concentrations:100 nM and 1000 nM (sheet 'Samples'); n = 1
Each entry below carries its reported potency estimated from few doses.
Please reply with the bare figure in µM and do not write the unit itself.

Sample records with potency estimated from few doses:
>  <compound>
Nc1nccc(-c2ccc3c(N)n[nH]c3c2)n1 [GSK1034945A]

>  <potency estimated from few doses [µM]>
2.03

$$$$
>  <compound>
Cc1cccc(Nc2nc(N[C@H]3CCNC3)ncc2C(N)=O)c1.Cl [GSK2197149A]

>  <potency estimated from few doses [µM]>
1.17

$$$$
>  <compound>
Cc1cccc(-c2nc(Nc3ccc4[nH]ncc4c3)c3ccccc3n2)n1 [GW857175X]

>  <potency estimated from few doses [µM]>
0.00889

$$$$

[Q] Which potency estimated from few doses is reported with PRKD2 for this entry: Cc1cccc(-c2nc(C)cc(Nc3ccncc3)n2)n1 [GSK257997A] ?
[A] 0.408

====

# Tested on: YES1
# Design: species or system human, MV4-11 + K-562 + COLO205 + SK-N-BE2 + OVCAR-8
# stated.conditions: read-out: apparent Kd; compound concentrations:100 nM and 1000 nM (sheet 'Samples'); n = 1
property.name: potency estimated from few doses

Here's what some known entries look like.
>  <molecule>
Cl.Cn1c(=O)c(Cc2ccc(F)cc2F)cc2cnc(NC3CCOCC3)nc21

>  <potency estimated from few doses>
805 nM

$$$$
>  <molecule>
O=C1NC(=O)C(N2CCc3ccccc32)=C1c1ccccc1Cl

>  <potency estimated from few doses>
128 nM

$$$$

Turning now to a further record.
[Q] I'd like to know its potency estimated from few doses. The compound in question is CC(C)N1CCC(n2cnc(-c3ccc(F)cc3)c2-c2ccnc(N)n2)CC1
[A] 758 nM

====

Readings of potency estimated from few doses for the listed molecules
# Test system: TNK2
# Parameters: species or system human, MV4-11 + K-562 + COLO205 + SK-N-BE2 + OVCAR-8
# stated.conditions: read-out: apparent Kd; compound concentrations:100 nM and 1000 nM (sheet 'Samples'); n = 1
Give the number; nM is assumed, so skip it.

>  <molecule>
CNC(=O)c1ccccc1Nc1nc(Nc2ccc(N3CCOCC3)cc2)ncc1Cl.Cl [GSK1576028A]

>  <property.name>
potency estimated from few doses

>  <meas.value>
731

$$$$
>  <molecule>
CN1CCC(C(=O)Nc2n[nH]c3nc(-c4ccc(O)cc4)c(Br)cc23)CC1.O=C(O)/C=C\C(=O)O [SB-732881-H]

>  <property.name>
potency estimated from few doses

>  <meas.value>
964

$$$$
>  <molecule>
NCCNS(=O)(=O)c1ccc(-c2ccnc3[nH]ccc23)cc1 [GSK977617A]

>  <property.name>
potency estimated from few doses

>  <meas.value>
233

$$$$

Let's switch to this molecule now.
[Q] Item CN1C[C@@H]2Cn3c(c(C4=C(c5cn(C)c6ccccc56)C(=O)NC4=O)c4ccccc43)C[C@H]2C1.Cl [RO0320234-001] has what recorded potency estimated from few doses?
[A] 84.4

====

# Test system: CLK4
# Design: species or system human, MV4-11 + K-562 + COLO205 + SK-N-BE2 + OVCAR-8
# stated.conditions: read-out: apparent Kd; compound concentrations:100 nM and 1000 nM (sheet 'Samples'); n = 1
Consider the cut-off 1 µM. If the recorded potency estimated from few doses is strictly smaller, the label is 1; if not, the label is -1.

[Q] For this compound, is potency estimated from few doses lower than 1 µM? CCN1CCC(CC(=O)Nc2n[nH]c3nnc(-c4cccc(F)c4F)cc23)CC1.O=C(O)[C@H](O)[C@@H](O)C(=O)O
[A] -1

[Q] Another compound to check: Cl.Cn1c(=O)c(Cc2ccc(F)cc2F)cc2cnc(NC3CCOCC3)nc21
[A] -1

[Q] Similarly, CS(=O)(=O)Nc1ccc(-c2ccnc3[nH]ccc23)cc1 [GSK993273A] ?
[A] -1

[Q] Now the compound NCCNS(=O)(=O)c1ccc(-c2ccnc3[nH]ccc23)cc1 [GSK977617A]
[A] 1

[Q] How about CS(=O)(=O)CCn1c(=O)c(Oc2ccc(F)cc2F)cc2cnc(NC3CCOCC3)nc21 ?
[A] -1

[Q] And for NS(=O)(=O)c1ccc(N/N=C2\C(=O)Nc3ccc(C(=O)NCCc4c[nH]cn4)cc32)cc1 [GW300660X] ?
[A] -1

[Q] What do you have for CCn1c(-c2nonc2N)nc2cncc(Br)c21 ?
[A] 1

[Q] Follow-up entry: Cc1cnc(Nc2ccc(F)cc2Cl)nc1-c1c[nH]c(C(=O)N[C@H](CO)c2cccc(Cl)c2)c1 [Vertex11e]
[A] -1

====

# Tested on: NUAK1
# Design: species or system human, MV4-11 + K-562 + COLO205 + SK-N-BE2 + OVCAR-8
# stated.conditions: read-out: apparent Kd; compound concentrations:100 nM and 1000 nM (sheet 'Samples'); n = 1
Quick rule for you: potency estimated from few doses at 1000 nM or higher means satisfied, lower means not satisfied.

A selection of reference data follows.
>  <molecule>
Cc1cc(NC(=O)c2cccc(NC(=O)/C=C/CN(C)C)c2)ccc1Nc1nccc(-c2cccnc2)n1

>  <class.assignment>
not satisfied

$$$$
>  <molecule>
COc1ccc(O)c(C(=O)c2ccc(C(=O)O[C@@H]3CCCNC[C@H]3NC(=O)c3ccncc3)cc2)c1F.Cl

>  <class.assignment>
not satisfied

$$$$
>  <molecule>
COc1cc2ncn(-c3cc(OCCCc4ccccc4)c(C(N)=O)s3)c2cc1OC [GSK205189A]

>  <class.assignment>
satisfied

$$$$
>  <molecule>
O=C(Nc1n[nH]c2nc(-c3ccccc3)c(Cl)cc12)C1CC1

>  <class.assignment>
satisfied

$$$$
>  <molecule>
COc1cc[nH]c1/C=C1\C(=O)Nc2ccc(F)c(C#C[C@@H](O)[C@@H](N)[C@@H](C)O)c21

>  <class.assignment>
not satisfied

$$$$
>  <molecule>
C[C@@H](Oc1cc(-n2cnc3cc(-c4cnn(C)c4)ccc32)sc1C(N)=O)c1ccccc1Cl [GSK580432A]

>  <class.assignment>
not satisfied

$$$$
>  <molecule>
NCC1CNC(=O)c2cc3ccc(C(=O)Nc4cccnc4)cc3n2C1 (stereo not shown)

>  <class.assignment>
satisfied

$$$$
>  <molecule>
C[C@@H]1CCNC(=O)c2cc3ccc(C(=O)Nc4nc5ccccc5n4CCCN(C)C)cc3n21

>  <class.assignment>
not satisfied

$$$$

[Q] Is the recorded value of potency estimated from few doses equal to or greater than 1000 nM for this molecule? Cc1cccc(Nc2nc(N[C@H]3CCNC3)ncc2C(N)=O)c1.Cl [GSK2197149A]
[A] satisfied

[Q] Same question, CN(C)CCNC(=O)Nc1ccc(N(C)c2ccnc(Nc3ccc(CS(C)(=O)=O)cc3)n2)cc1.Cl [GW830900A] this time
[A] satisfied

Source of measurements: paper PMC11062922
